B1: CPEB3 Ribozyme (parent)
chain: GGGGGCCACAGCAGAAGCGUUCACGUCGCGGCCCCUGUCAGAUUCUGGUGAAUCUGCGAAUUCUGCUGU

# Variants of: B1
# experiment: self-cleavage, relative activity (ratio to wild type); higher = more cleavage; co-transcriptional
recorded_endpoint: self-cleavage

Endpoint output: self-cleavage of GAGGGCCACAGCAGAAGCGUUCACGUCGCGGCCCCUGUCAGAUUCUGGUGAAUCUGCGAAUUCUCCUGU [G2A G65C] . Value?
0.122

Quick one: GGGGGCCACAGCAGAAGCGUUCACGUCGCGGCACCUGUCAGAUUCUGGUGAAUCUGCGAAUUCUGCUGC [C33A U69C]
1.04
